Test System: mouse melanocortin-1 receptor (mouse, UniProt Q01727 1-315)
Sequence (Q01727 whole entry): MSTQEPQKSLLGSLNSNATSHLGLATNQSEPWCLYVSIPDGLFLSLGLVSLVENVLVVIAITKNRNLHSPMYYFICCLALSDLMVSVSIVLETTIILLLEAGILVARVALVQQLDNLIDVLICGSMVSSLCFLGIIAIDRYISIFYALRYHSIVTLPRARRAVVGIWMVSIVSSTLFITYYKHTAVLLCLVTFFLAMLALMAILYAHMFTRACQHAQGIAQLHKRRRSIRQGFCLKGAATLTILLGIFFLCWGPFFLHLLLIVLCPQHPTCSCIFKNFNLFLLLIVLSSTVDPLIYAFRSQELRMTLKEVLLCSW
Assay Text: cell-based or functional assay
Square brackets hold non-standard residues; d marks the D form.
Observed Property: partial agonist efficacy, % of NDP-MSH

Worked examples follow.
Binder: cyclo(P[dR][dF]FNAF[dP]) [c[Pro-DArg-DPhe-Phe-Asn-Ala-Phe-DPro]]
partial agonist efficacy, % of NDP-MSH: 90%

Binder: PRFFXAFP (head-to-tail cyclic; DArg at 2; DPhe at 4; Dap at 5; DPro at 8) [c[Pro-DArg-Phe-DPhe-Dap-Ala-Phe-DPro]]
partial agonist efficacy, % of NDP-MSH: 70%

Binder: PRFFXAFP (head-to-tail cyclic; DPhe at 4; Dap at 5; DPro at 8) [c[Pro-Arg-Phe-DPhe-Dap-Ala-Phe-DPro]]
partial agonist efficacy, % of NDP-MSH: 75%

Binder: cyclo(PR[dF][dF]NAF[dP]) [c[Pro-Arg-DPhe-DPhe-Asn-Ala-Phe-DPro]]
partial agonist efficacy, % of NDP-MSH: 85%

Binder: PRFFXAFP (head-to-tail cyclic; DArg at 2; DPhe at 3; Dap at 5; DPro at 8) [c[Pro-DArg-DPhe-Phe-Dap-Ala-Phe-DPro]]
partial agonist efficacy, % of NDP-MSH: 70%

Binder: PRFFXAFP (head-to-tail cyclic; DArg at 2; DPhe at 3 and 4; Dap at 5; DPro at 8) [c[Pro-DArg-DPhe-DPhe-Dap-Ala-Phe-DPro]]
partial agonist efficacy, % of NDP-MSH: 60%

Now look at this one.
Request the reported partial agonist efficacy, % of NDP-MSH associated with cyclo(P[dR][dF][dF]NAF[dP]) [c[Pro-DArg-DPhe-DPhe-Asn-Ala-Phe-DPro]] 85%
